- Study System: HIV-1 RT double mutant K103N/Y181C (Human immunodeficiency virus type 1 group M subtype B, UniProt P03366, K702N/Y780C)
- Construct: HIV-1 wild type reverse transcriptase as well as the clinically significant double mutant K103N/Y181C
- Assay Notes: biochemical
- Condition: RT double mutant K103N/Y181C; read-out: IC50 K103N/Y181C
Metric Name: IC50

Give the reported value of IC50 for this record: CCN1c2ncc(CCOc3ccc(-c4ccc(CC(=O)O)cc4OC)cc3C)cc2C(=O)N(C)c2cccnc21
< 50 nM

Give the reported value of IC50 for this record: CCN1c2ncc(CCOc3ccc(-c4cccc(C(C)C(=O)O)c4)cc3C)cc2C(=O)N(C)c2cccnc21 (centres unmarked)
50 to 100 nM

Give the reported value of IC50 for this record: CCN1c2ncc(CCOc3ccc(-c4cc(C(=O)O)ccc4OC)cc3C)cc2C(=O)N(C)c2cccnc21
> 100 nM

Give the reported value of IC50 for this record: CCN1c2ncc(CCOc3ccc(-c4nc(C(=O)O)cs4)cc3)cc2C(=O)N(C)c2cccnc21
> 100 nM

Give the reported value of IC50 for this record: CCN1c2ncc(CCOc3ccc(-c4ccc(C(=O)O)cc4)cc3F)cc2C(=O)N(C)c2cccnc21
> 100 nM

Give the reported value of IC50 for this record: CCN1c2ncc(CCOc3ccc(-c4ccc(CC(=O)O)cc4[N+](=O)[O-])cc3C)cc2C(=O)N(C)c2cccnc21
50 to 100 nM

Give the reported value of IC50 for this record: CCN1c2ncc(CCOc3ccc(-c4ccc(C(=O)O)cc4)c(C)c3)cc2C(=O)N(C)c2cccnc21
> 100 nM

Give the reported value of IC50 for this record: CCN1c2ncc(CCOc3ccc(-c4cc(CC(=O)O)ccc4OC)cc3C)cc2C(=O)N(C)c2cccnc21
50 to 100 nM

Give the reported value of IC50 for this record: CCN1c2ncc(CCOc3ccc(-c4ccc(Cl)c(CC(=O)O)c4)cc3C)cc2C(=O)N(C)c2cccnc21
< 50 nM

Give the reported value of IC50 for this record: CCN1c2ncc(CCOc3ccc(-c4cccnc4C)cc3C)cc2C(=O)N(C)c2cccnc21
< 50 nM

Give the reported value of IC50 for this record: CCN1c2ncc(CCOc3ccc(-c4ccc(CC(=O)O)cc4)cc3C)cc2C(=O)N(C)c2cccnc21
< 50 nM

Give the reported value of IC50 for this record: CCN1c2ncc(CCOc3ccc(-c4cnc(N)c(C)c4)cc3C)cc2C(=O)N(C)c2cccnc21
< 50 nM

Give the reported value of IC50 for this record: CCN1c2ncc(CCOc3ccc(C(=O)Nc4cccc[n+]4[O-])cc3C)cc2C(=O)Nc2c(C)ccnc21
50 to 100 nM

Give the reported value of IC50 for this record: CCN1c2ncc(CCOc3ccc(-c4cc(F)c(O)c(F)c4)cc3C)cc2C(=O)N(C)c2cccnc21
50 to 100 nM
